- protocol-description: melting temperature; melt of duplexes
- experimental-setup: sodium 0.0675 M; strand 1 µM
value-type: Tm (°C)
# output: bare number, implied unit °C

stdin: Return Tm (reported value) for this substance: CGACGTGCATAATGTGCTG+CAGCACATATCGCACGTCG ((((((((...((((((((+))))))))...))))))))
stdout: 48.6

stdin: Return value of Tm for input CGACGTGCATGATGTGCTG+CAGCACATTCGGCACGTCG ((((((((...((((((((+))))))))...)))))))) , no commentary.
stdout: 50.3

stdin: Quick one: give measured Tm for CGACGTGCAAGATGTGCTG+CAGCACATTGTGCACGTCG (((((((((..((((((((+))))))))..)))))))))
stdout: 50.6

stdin: Give the reported value of Tm for this record: CGACGTGCAAAATGTGCTG+CAGCACATCGCGCACGTCG ((((((((...((((((((+))))))))...))))))))
stdout: 48.9
